biological target: UniProt:Q15858; experiment: Whole-cell patch-clamp of sodium currents in Nav1.7-expressing HEK293 cells; details: Nav1.7-expressing HEK293 cells, dose-response; read-out: 50% inhibition concentration (IC50)
pIC50: −log10 of the molar value.
assay_endpoint: pIC50

{"compound": "O=C(CC(c1cccc(Oc2ccccc2)c1)c1cn(Cc2ccccc2)c2ccccc12)NCCN1CCCC1 (stereo not shown)", "result": 6.13}

* * *

In this section we review reported difference in relative current from the control group at the last measurement values for a set of compounds.
molecular target: human Nav1.7 (Homo sapiens, UniProt Q15858); assay: Whole-cell patch-clamp of sodium currents in Nav1.7-expressing HEK293 cells; type: cell-based; conditions: 10 μM, screen of compounds 1-9 (FIG. 3)
Sequence (Q15858 whole entry): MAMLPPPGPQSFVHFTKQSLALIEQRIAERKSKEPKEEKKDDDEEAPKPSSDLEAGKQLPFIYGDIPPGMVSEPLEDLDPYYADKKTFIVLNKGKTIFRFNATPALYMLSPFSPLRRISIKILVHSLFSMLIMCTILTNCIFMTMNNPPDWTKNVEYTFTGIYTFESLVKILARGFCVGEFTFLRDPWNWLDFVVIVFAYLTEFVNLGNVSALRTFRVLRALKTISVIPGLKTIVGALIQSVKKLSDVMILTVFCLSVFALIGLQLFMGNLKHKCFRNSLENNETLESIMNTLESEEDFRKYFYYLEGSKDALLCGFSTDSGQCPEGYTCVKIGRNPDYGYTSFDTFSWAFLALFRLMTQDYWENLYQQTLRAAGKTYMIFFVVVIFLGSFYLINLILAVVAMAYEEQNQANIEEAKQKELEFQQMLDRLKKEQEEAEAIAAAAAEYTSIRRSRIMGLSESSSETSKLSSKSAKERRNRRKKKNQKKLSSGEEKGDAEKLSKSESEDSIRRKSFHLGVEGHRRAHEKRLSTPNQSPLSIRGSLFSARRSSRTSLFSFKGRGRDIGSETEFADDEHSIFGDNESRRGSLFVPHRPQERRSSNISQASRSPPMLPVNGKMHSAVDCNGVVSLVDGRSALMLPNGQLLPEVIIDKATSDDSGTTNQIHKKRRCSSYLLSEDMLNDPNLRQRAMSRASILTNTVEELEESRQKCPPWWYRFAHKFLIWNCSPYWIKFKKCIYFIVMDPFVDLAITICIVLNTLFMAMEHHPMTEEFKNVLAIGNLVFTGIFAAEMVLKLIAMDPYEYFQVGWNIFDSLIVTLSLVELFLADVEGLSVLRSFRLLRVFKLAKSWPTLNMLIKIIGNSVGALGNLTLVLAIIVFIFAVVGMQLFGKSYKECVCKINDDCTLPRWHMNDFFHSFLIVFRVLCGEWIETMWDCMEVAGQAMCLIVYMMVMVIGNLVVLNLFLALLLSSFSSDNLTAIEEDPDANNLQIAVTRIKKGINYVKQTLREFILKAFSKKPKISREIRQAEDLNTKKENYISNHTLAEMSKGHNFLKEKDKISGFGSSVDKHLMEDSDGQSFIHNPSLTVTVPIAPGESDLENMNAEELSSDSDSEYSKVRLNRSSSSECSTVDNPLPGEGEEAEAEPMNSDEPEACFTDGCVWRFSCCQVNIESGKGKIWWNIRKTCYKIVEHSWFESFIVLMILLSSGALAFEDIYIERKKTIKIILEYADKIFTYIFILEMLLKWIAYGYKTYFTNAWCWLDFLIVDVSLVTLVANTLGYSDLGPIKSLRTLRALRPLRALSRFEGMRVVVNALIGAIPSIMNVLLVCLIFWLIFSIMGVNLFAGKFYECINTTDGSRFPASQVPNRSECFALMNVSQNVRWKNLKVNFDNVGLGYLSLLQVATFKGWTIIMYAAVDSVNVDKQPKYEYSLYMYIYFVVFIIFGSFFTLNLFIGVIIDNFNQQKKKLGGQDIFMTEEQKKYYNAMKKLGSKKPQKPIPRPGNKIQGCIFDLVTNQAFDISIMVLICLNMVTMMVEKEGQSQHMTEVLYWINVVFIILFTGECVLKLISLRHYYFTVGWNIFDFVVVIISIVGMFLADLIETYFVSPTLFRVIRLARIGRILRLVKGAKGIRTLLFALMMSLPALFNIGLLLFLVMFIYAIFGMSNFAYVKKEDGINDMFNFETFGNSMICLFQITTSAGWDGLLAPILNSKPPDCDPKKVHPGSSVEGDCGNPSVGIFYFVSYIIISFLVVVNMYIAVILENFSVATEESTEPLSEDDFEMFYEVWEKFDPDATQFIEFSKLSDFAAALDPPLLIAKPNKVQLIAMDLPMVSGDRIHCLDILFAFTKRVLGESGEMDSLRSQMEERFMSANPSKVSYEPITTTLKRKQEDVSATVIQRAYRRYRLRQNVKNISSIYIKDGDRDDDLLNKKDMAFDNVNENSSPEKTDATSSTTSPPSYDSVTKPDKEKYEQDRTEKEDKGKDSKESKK
assay_endpoint: difference in relative current from the control group at the last measurement

{"compound": "COc1ccc(Cn2cc(C(CC(=O)NCc3ccco3)c3cccc(Oc4ccccc4)c3)c3ccccc32)cc1 (stereo not shown) [Compound 8]", "system_name": "human Nav1.7 (Homo sapiens, UniProt Q15858)", "result": 0.36}
{"compound": "O=C(CC(c1cccc(Oc2ccccc2)c1)c1cn(Cc2ccccc2)c2ccccc12)NCCN1CCCC1 (stereo not shown) [Compound 9]", "system_name": "human Nav1.7 (Homo sapiens, UniProt Q15858)", "result": 0.71}
{"compound": "Cc1ccc(Cn2cc(C(CC(=O)NCc3ccncc3)c3cccc(Oc4ccc(Cl)cc4)c3)c3ccccc32)cc1 (stereo not shown) [Compound 5]", "system_name": "human Nav1.7 (Homo sapiens, UniProt Q15858)", "result": 0.29}
{"compound": "COc1ccc(Cn2cc(C(CC(=O)NCc3ccccc3)c3cccc(OCc4ccccc4)c3)c3ccccc32)cc1 (stereo not shown) [Compound 7]", "system_name": "human Nav1.7 (Homo sapiens, UniProt Q15858)", "result": 0.35}
